# target_or_test_system: D(2) dopamine receptor (Homo sapiens, UniProt P14416)
# Sequence (P14416 whole entry): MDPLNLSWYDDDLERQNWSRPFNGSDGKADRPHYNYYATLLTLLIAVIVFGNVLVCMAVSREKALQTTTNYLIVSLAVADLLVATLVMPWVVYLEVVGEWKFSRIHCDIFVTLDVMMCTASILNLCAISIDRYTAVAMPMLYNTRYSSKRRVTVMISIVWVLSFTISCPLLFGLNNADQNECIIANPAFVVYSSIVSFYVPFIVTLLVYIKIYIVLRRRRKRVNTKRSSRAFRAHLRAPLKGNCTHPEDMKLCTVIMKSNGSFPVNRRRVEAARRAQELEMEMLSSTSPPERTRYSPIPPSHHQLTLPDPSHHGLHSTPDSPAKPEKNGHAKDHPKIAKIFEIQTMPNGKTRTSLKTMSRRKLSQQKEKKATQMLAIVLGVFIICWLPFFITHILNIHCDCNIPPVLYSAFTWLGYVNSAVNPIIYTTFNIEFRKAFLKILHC
# experiment: Displacement of [3H]spiroperidol from human cloned dopaminergic D2 receptor expressed in rat C6 cells
pKi: −log10 of the molar value.
Consider the following compounds and their measured pKi readings.
reported_endpoint: pKi

1. COc1cccc(CCc2ccccc2OCCCCCN2CCN(c3cccc(Cl)c3)CC2)c1 | < 6.00
2. COc1cccc(CCc2ccccc2OCCN2CCN(c3ccc(F)cc3)CC2)c1 | < 6.00
3. COc1cccc(CCc2ccccc2OCCN2CCN(c3cccc(C(F)(F)F)c3)CC2)c1 | < 6.00
4. COc1cccc(CCc2ccccc2OCCCCN2CCc3cc(OC)c(OC)cc3C2)c1 | < 6.00
5. COc1cccc(CCc2ccccc2OCCCN2CCN(c3cccc(Cl)c3)CC2)c1 | 6.53
6. COc1cccc(CCc2ccccc2OCCCCCN2CCN(c3ncccn3)CC2)c1 | < 6.00
7. COc1cccc(CCc2ccccc2OCCN2CCN(C)CC2)c1 | 6.75
8. COc1cccc(CCc2ccccc2OCCCCN2CCN(C)CC2)c1 | < 6.00
9. COc1cccc(CCc2ccccc2OCCCN2CCN(c3ccccc3OC)CC2)c1 | 8.20
10. COc1cccc(CCc2ccccc2OCCCN2CCN(c3cccc(C(F)(F)F)c3)CC2)c1 | 5.85
11. COc1cccc(CCc2ccccc2OCCN2CCN(c3ncccn3)CC2)c1 | 6.20
12. COc1cccc(CCc2ccccc2OCCCCN2CCN(c3cccc(C(F)(F)F)c3)CC2)c1 | < 6.00
13. COc1cccc(CCc2ccccc2OCCCCCN2CCN(C)CC2)c1 | < 6.00
14. COc1cccc(CCc2ccccc2OCCCN2CCc3ccccc3C2)c1 | 6.94
15. COc1cccc(CCc2ccccc2OCCN2CCc3cc(OC)c(OC)cc3C2)c1 | < 6.00
16. COc1cccc(CCc2ccccc2OCCCCCN2CCc3cc(OC)c(OC)cc3C2)c1 | < 6.00

====

# target_or_test_system: ATP-dependent translocase ABCB1 (Homo sapiens)
# Sequence (P08183 whole entry): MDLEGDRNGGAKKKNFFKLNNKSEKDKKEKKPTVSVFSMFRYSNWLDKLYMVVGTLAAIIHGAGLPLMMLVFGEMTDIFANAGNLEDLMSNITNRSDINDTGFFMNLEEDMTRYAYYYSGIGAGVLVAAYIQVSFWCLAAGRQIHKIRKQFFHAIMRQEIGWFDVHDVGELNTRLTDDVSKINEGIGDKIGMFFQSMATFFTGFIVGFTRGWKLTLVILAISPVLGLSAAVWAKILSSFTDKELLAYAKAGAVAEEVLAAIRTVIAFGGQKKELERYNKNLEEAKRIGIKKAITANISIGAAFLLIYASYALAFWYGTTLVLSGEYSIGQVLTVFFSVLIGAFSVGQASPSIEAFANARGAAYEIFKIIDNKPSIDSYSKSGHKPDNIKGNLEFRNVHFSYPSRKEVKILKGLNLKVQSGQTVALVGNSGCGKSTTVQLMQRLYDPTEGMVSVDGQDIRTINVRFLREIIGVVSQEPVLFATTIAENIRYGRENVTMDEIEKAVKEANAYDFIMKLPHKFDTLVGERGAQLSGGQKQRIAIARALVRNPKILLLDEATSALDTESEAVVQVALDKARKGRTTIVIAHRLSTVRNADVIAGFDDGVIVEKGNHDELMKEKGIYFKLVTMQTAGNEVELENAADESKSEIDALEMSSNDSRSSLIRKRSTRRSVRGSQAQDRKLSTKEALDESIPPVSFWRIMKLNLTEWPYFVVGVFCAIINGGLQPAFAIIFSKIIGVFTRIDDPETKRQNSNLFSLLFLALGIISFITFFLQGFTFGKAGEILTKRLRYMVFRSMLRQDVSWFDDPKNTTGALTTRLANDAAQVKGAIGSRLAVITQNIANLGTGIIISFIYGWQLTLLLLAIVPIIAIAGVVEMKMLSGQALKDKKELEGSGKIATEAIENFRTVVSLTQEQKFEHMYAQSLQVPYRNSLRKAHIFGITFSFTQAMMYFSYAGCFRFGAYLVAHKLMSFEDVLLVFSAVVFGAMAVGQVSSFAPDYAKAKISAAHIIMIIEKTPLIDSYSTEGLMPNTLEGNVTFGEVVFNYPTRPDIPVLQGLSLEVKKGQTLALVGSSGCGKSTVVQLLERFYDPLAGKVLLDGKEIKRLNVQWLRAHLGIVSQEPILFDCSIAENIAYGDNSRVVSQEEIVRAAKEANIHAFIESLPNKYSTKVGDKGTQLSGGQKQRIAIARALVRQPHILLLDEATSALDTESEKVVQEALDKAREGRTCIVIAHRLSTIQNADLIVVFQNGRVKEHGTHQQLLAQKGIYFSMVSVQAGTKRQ
# experiment: Inhibition of ABCB1-mediated [3H]vinblastine transportation in human Caco-2 cells
# Format: cell-based
reported_endpoint: IC50 (nM)

1. COc1cccc(CCc2ccccc2OCCCCCN2CCN(C)CC2)c1 | 6820
2. COc1cccc(CCc2ccccc2OCCCN2CCN(C)CC2)c1 | 2500
3. COc1cccc(CCc2ccccc2OCCCN2CCc3cc(OC)c(OC)cc3C2)c1 | 140

====

# target_or_test_system: 5-hydroxytryptamine receptor 1A (Homo sapiens, UniProt P08908)
# Sequence (P08908 whole entry): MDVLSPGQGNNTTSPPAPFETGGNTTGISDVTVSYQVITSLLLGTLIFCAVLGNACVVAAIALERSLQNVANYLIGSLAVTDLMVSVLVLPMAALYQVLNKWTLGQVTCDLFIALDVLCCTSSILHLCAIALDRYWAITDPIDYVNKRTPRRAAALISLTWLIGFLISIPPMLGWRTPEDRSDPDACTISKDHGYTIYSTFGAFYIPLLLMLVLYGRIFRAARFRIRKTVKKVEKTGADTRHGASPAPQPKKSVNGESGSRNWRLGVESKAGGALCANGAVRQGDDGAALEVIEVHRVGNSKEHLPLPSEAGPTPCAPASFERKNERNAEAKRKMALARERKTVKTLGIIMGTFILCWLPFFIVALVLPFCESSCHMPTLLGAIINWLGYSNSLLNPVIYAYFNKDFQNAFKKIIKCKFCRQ
pKi: −log10 of the molar value.
Consider the following compounds and their measured pKi readings.
reported_endpoint: pKi

1. COc1cccc(CCc2ccccc2OCCN2CCN(c3ncccn3)CC2)c1 | 6.18
2. COc1cccc(CCc2ccccc2OCCN2CCN(c3ccc(F)cc3)CC2)c1 | 6.11
3. COc1cccc(CCc2ccccc2OCCN2CCN(c3ccccc3OC)CC2)c1 | 5.91
4. COc1cccc(CCc2ccccc2OCCCN2CCN(c3cccc(Cl)c3)CC2)c1 | 5.95
5. COc1cccc(CCc2ccccc2OCCCN2CCN(c3cccc(C(F)(F)F)c3)CC2)c1 | 5.54

====

# target_or_test_system: ABCB1 (Homo sapiens)
# experiment: Activation of ABCB1 in human Caco-2 cells assessed as ATPase activation at 100 uM after 2 hrs
Consider the following compounds and their measured activation at 2 h, 100 µM readings.
reported_endpoint: activation at 2 h, 100 µM (%)

1) COc1cccc(CCc2ccccc2OCCCCN2CCN(c3ccc(F)cc3)CC2)c1 | 25
2) COc1cccc(CCc2ccccc2OCCCCCN2CCc3cc(OC)c(OC)cc3C2)c1 | 20
3) COc1cccc(CCc2ccccc2OCCN2CCN(c3ccc(F)cc3)CC2)c1 | 10
